target: HIPT1 (Humulus lupulus, UniProt E5RP65, INS53SN/R152W); test: Substrate specificity of HIPT1 prenyltransferase activity (14C-DMAPP, radioHPLC); assay type: biochemical; design: were designed to amplify the open reading frame (ORF) of the prenlyltransferase gene; N-terminal 6xHis and TEV site from the pFastBacHT C vector (own knowledge of the vector); made in house; host or cells: Spodoptera frugiperda (Sf9) insect cells, baculovirus (Bac-to-Bac); microsomal preparation, not purified; conditions: aromatic acceptor substrates
Sequence (E5RP65 other isoform, or with tags, fused parts or gaps INS53SN/R152W): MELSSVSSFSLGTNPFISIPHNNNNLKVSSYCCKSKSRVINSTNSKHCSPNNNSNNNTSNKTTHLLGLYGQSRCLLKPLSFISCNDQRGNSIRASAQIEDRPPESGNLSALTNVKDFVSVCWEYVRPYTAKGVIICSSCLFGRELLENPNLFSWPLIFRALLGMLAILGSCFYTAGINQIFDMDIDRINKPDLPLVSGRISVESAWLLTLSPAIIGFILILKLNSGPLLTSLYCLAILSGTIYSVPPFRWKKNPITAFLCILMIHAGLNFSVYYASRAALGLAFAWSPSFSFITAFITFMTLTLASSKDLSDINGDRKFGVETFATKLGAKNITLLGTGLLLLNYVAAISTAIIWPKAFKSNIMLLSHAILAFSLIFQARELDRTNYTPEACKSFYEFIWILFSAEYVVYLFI
MEASUREMENT_LABEL: Acceptance as substrate of HIPT1

Cc1cc(O)cc(O)c1 | can accept
Oc1ccc(C=Cc2cc(O)cc(O)c2)cc1 | can accept
O=C(/C=C/c1ccc(O)cc1)c1ccc(O)cc1O | can accept
